conditions: 323.15 K; 101.33 kPa; Liquid
Numbers after ± are expanded uncertainties.
As shown below, each of these compounds has a reported mass density value.
Form entry: enter the amount, then its unit.

Some entries whose results are on file:
CCCCCCBr    1137.3 ± 1.5 kg/m3
CCCCBr    1229.5 ± 1.5 kg/m3
CCCCCCCCBr    1080.6 ± 1.5 kg/m3

Q. Item under review: CCCCCBr . Reported mass density?
A. 1177.1 ± 1.8 kg/m3

Q. Consider the compound CCCCCCCBr and give its measured mass density.
A. 1106 ± 1.5 kg/m3

Q. Need mass density, item CCCCCCCCCCCCBr
A. 1014 ± 1.4 kg/m3
